Test system: HOP-62
procedureDetails: NCI one-dose screening, non-small cell lung cancer HOP-62
Type: cell-based, human
measurementConditions: 10 μM

[
  {
    "moleculeSmiles": "O=C1c2ccccc2C(=O)c2c1cc(SCc1ccc(Cl)cc1)c1nsnc21",
    "Growth Percent HOP-62 (%)": 89.15
  },
  {
    "moleculeSmiles": "O=C1c2ccccc2C(=O)c2c1cc(Cl)c1nsnc21",
    "Growth Percent HOP-62 (%)": 82.19
  },
  {
    "moleculeSmiles": "O=C1c2ccccc2C(=O)c2c1cc(Nc1ccc(Cl)cc1F)c1nsnc21",
    "Growth Percent HOP-62 (%)": 79.67
  },
  {
    "moleculeSmiles": "Cc1ccc(Sc2cc3c(c4nsnc24)C(=O)c2ccccc2C3=O)c(C)c1",
    "Growth Percent HOP-62 (%)": 79.34
  },
  {
    "moleculeSmiles": "COc1cccc(Sc2cc3c(c4nsnc24)C(=O)c2ccccc2C3=O)c1",
    "Growth Percent HOP-62 (%)": 61.81
  },
  {
    "moleculeSmiles": "O=C1c2ccccc2C(=O)c2c1cc(Sc1ccccc1)c1nsnc21",
    "Growth Percent HOP-62 (%)": 97.77
  },
  {
    "moleculeSmiles": "O=C1c2ccccc2C(=O)c2c1cc(Nc1ccc(Cl)cc1)c1nsnc21",
    "Growth Percent HOP-62 (%)": 71.23
  },
  {
    "moleculeSmiles": "CCSc1cc2c(c3nsnc13)C(=O)c1ccccc1C2=O",
    "Growth Percent HOP-62 (%)": 2.44
  }
]

* * *

Tested on: MDA, -MB-435
procedureDetails: NCI one-dose screening, breast cancer MDA, -MB-435
Type: cell-based, human
measurementConditions: 10 μM; listed under Melanoma
Here the recorded Growth Percent MDA-MB-435 is given for each entry.
reportedEndpoint: Growth Percent MDA-MB-435 (%)

[
  {
    "compound": "O=C1c2ccccc2C(=O)c2c1cc(N1CCOCC1)c1nsnc21 [C10]",
    "reportedEndpoint": "Growth Percent MDA-MB-435",
    "readoutNumber": 0.52
  },
  {
    "compound": "Cc1cccc(C)c1Sc1cc2c(c3nsnc13)C(=O)c1ccccc1C2=O [C55]",
    "reportedEndpoint": "Growth Percent MDA-MB-435",
    "readoutNumber": 96.77
  },
  {
    "compound": "O=C1c2ccccc2C(=O)c2c1cc(Sc1ccc(F)cc1F)c1nsnc21 [C39]",
    "reportedEndpoint": "Growth Percent MDA-MB-435",
    "readoutNumber": "−85.27"
  },
  {
    "compound": "O=C1c2ccccc2C(=O)c2c1ccc1nsnc21 [C1]",
    "reportedEndpoint": "Growth Percent MDA-MB-435",
    "readoutNumber": "−87.88"
  },
  {
    "compound": "CCSc1cc2c(c3nsnc13)C(=O)c1ccccc1C2=O [C16]",
    "reportedEndpoint": "Growth Percent MDA-MB-435",
    "readoutNumber": "−61.08"
  },
  {
    "compound": "COc1ccc(Sc2cc3c(c4nsnc24)C(=O)c2ccccc2C3=O)cc1 [C41]",
    "reportedEndpoint": "Growth Percent MDA-MB-435",
    "readoutNumber": 118.61
  },
  {
    "compound": "O=C1c2ccccc2C(=O)c2c1cc(Nc1ccc(Cl)cc1F)c1nsnc21 [C65]",
    "reportedEndpoint": "Growth Percent MDA-MB-435",
    "readoutNumber": 27.37
  },
  {
    "compound": "Cc1ccc(Sc2cc3c(c4nsnc24)C(=O)c2ccccc2C3=O)c(C)c1 [C25]",
    "reportedEndpoint": "Growth Percent MDA-MB-435",
    "readoutNumber": 105.58
  },
  {
    "compound": "O=C1c2ccccc2C(=O)c2c1cc(Sc1cccc(Cl)c1)c1nsnc21 [C37]",
    "reportedEndpoint": "Growth Percent MDA-MB-435",
    "readoutNumber": "−82.33"
  },
  {
    "compound": "O=C1c2ccccc2C(=O)c2c1cc(SCc1ccccc1)c1nsnc21 [C21]",
    "reportedEndpoint": "Growth Percent MDA-MB-435",
    "readoutNumber": "−48.29"
  },
  {
    "compound": "O=C1c2ccccc2C(=O)c2c1cc(Nc1ccc(Cl)cc1)c1nsnc21 [C60]",
    "reportedEndpoint": "Growth Percent MDA-MB-435",
    "readoutNumber": 72.21
  },
  {
    "compound": "O=C1c2ccccc2C(=O)c2c1cc(Sc1ccc(Cl)cc1)c1nsnc21 [C22]",
    "reportedEndpoint": "Growth Percent MDA-MB-435",
    "readoutNumber": 106.67
  },
  {
    "compound": "O=C1c2ccccc2C(=O)c2c1cc(Sc1ccccc1Br)c1nsnc21 [C27]",
    "reportedEndpoint": "Growth Percent MDA-MB-435",
    "readoutNumber": "−72.95"
  },
  {
    "compound": "CSc1ccc(Sc2cc3c(c4nsnc24)C(=O)c2ccccc2C3=O)cc1 [C43]",
    "reportedEndpoint": "Growth Percent MDA-MB-435",
    "readoutNumber": 118.40
  },
  {
    "compound": "O=C1c2ccccc2C(=O)c2c1cc(N1CCSCC1)c1nsnc21 [C15]",
    "reportedEndpoint": "Growth Percent MDA-MB-435",
    "readoutNumber": 77.03
  },
  {
    "compound": "COc1cccc(Sc2cc3c(c4nsnc24)C(=O)c2ccccc2C3=O)c1 [C46]",
    "reportedEndpoint": "Growth Percent MDA-MB-435",
    "readoutNumber": 72.50
  }
]
